Target Under Test: Phosphatidylinositol 4,5-bisphosphate 3-kinase catalytic subunit alpha isoform (Homo sapiens)
Sequence (P42336 whole entry, the tested form may be a part, canonical isoform): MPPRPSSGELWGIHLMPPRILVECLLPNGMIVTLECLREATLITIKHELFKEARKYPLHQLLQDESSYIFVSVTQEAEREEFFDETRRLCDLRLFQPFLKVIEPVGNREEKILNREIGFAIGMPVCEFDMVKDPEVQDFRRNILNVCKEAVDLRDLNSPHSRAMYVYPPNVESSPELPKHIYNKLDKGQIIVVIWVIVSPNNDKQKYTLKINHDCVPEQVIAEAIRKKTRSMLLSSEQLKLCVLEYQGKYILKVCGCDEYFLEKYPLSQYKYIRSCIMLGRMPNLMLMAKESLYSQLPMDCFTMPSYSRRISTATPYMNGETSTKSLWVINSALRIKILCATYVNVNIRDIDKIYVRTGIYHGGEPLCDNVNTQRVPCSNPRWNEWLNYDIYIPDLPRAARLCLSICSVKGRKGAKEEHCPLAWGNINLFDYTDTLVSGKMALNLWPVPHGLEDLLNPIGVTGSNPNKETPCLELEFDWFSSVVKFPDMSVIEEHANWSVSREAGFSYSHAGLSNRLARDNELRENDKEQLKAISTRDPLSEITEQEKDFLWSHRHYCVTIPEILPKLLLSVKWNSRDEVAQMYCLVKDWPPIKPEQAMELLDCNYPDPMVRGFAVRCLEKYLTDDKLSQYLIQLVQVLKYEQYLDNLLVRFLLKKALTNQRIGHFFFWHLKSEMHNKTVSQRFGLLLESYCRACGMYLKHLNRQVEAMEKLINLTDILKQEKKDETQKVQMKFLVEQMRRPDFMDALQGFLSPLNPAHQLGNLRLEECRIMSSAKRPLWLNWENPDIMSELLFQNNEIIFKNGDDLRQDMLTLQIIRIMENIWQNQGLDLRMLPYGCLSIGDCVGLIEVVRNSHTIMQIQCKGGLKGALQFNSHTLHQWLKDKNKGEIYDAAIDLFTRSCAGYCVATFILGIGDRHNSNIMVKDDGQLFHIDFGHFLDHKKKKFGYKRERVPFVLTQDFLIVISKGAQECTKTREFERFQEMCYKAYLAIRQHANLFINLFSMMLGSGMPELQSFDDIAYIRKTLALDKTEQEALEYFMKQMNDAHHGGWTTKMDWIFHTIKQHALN
Measurement Protocol: Inhibition of GST-GRP1-fused PI3Kalpha by microtiter plate based fluorescence polarization assay
pIC50: −log10 of the molar value.
Classification field: enter Met for pIC50 values not below 6, Not met for values below it.

Given NC(=O)c1ccc(-c2nc(N3CCOCC3)c3nc[nH]c3n2)cc1 , state whether its pIC50 is at least 6.
Not met

# repeat for OCc1cccc(-c2nc(N3CCOCC3)c3cnn(C4CCN(Cc5ccccc5)CC4)c3n2)c1
Met

Also Oc1cccc(-c2nc(N3CCOCC3)c3ncn(CC4CCN(Cc5ccccc5)CC4)c3n2)c1 ?
Met

Now the molecule c1nc2c(N3CCOCC3)nc(-c3ccsc3)nc2[nH]1
Not met

Queued: Oc1cccc(-c2nc(N3CCOCC3)c3ncn(C4CCN(Cc5ccccc5)CC4)c3n2)c1
Met

Okay, and Oc1ccc(-c2nc(N3CCOCC3)c3nc[nH]c3n2)cc1 ?
Not met

Continue with Oc1cccc(-c2nc(N3CCOCC3)c3nc[nH]c3n2)c1
Met
